- ASSAY_TEXT: Toxicity in rat administered daily for 28 days
- TEST_CONDITIONS: in vivo, time 28 day
EXPERIMENTAL_ENDPOINT: NOAEL at 672 h (mg/kg/day)
I only need the number, in mg/kg/day, no unit after it.

q: # get_value(readout='NOAEL at 672 h', item= "N#Cc1cc(-c2ccc(C(=O)O)c(O)c2)c2oc(F)cc2c1" )
a: 60

====

- ASSAY_TEXT: Half life in Beagle dog at 5 mg/kg, po measured upto 24 hrs by LC-MS/MS analysis
- Assay type: ADME, organism-based, Canis lupus familiaris
- TEST_CONDITIONS: in vivo
EXPERIMENTAL_ENDPOINT: half-life (h)
I only need the number, in h, no unit after it.

q: # get_value(readout='half-life', item= "N#Cc1cc(-c2ccc(C(=O)O)c(O)c2)c2oc(F)cc2c1" )
a: 2.82

====

- ASSAY_TEXT: Cmax in Beagle dog at 5 mg/kg, po measured upto 24 hrs by LC-MS/MS analysis
- Format: ADME, organism-based, Canis lupus familiaris
- TEST_CONDITIONS: in vivo
EXPERIMENTAL_ENDPOINT: Cmax (µg/mL)
I only need the number, in µg/mL, no unit after it.

q: # get_value(readout='Cmax', item= "N#Cc1cc(-c2ccc(C(=O)O)c(O)c2)c2oc(F)cc2c1" )
a: 2.53

====

- SYSTEM: UniProtKB P10632
- Sequence (P10632 whole entry): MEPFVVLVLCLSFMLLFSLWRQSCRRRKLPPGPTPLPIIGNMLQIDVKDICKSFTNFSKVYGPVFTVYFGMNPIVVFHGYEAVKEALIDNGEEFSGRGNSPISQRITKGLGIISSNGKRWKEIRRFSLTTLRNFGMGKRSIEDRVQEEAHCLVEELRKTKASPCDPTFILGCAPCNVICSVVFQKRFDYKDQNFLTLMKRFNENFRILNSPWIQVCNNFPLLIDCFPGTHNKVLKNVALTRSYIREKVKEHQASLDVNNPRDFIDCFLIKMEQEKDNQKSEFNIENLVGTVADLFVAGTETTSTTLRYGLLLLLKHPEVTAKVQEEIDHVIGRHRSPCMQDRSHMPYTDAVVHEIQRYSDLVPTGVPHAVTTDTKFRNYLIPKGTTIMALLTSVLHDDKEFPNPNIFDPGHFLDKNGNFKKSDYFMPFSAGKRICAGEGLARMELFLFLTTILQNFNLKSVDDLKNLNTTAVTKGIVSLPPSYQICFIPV
- ASSAY_TEXT: Inhibition of CYP2C8 in human liver microsomes in presence of NADPH by LC-MS/MS analysis
- Format: ADME, Microsome
EXPERIMENTAL_ENDPOINT: IC50 (µM)
I only need the number, in µM, no unit after it.

q: Please state recorded IC50 (tested on UniProtKB P10632) of "N#Cc1cc(-c2ccc(C(=O)O)c(O)c2)c2oc(F)cc2c1"
a: 12.2

====

- ASSAY_TEXT: Cmax in Tufted capuchin monkey at 30 mg/kg, po measured for 24 hrs by LC-MS/MS analysis
- Type: ADME, organism-based
- TEST_CONDITIONS: sapajus apella, in vivo
EXPERIMENTAL_ENDPOINT: Cmax
Kindly write the number and append the unit.

q: # get_value(readout='Cmax', item= "N#Cc1cc(-c2ccc(C(=O)O)c(O)c2)c2oc(F)cc2c1" )
a: 16700 ng/mL

====

Below: a set of entries, each annotated with reported AUC(0-t) at 24 h.
- ASSAY_TEXT: AUC (last) in overnight-fasted Sprague-Dawley rat at 1 mg/kg, iv measured upto 24 hrs by LC-MS/MS analysis
- Type: ADME, organism-based
- TEST_CONDITIONS: in vivo
Kindly write the number and append the unit.

[[record]]
smi = "N#Cc1cc(-c2ccc(C(=O)O)c(O)c2)c2ccoc2c1"
result = "8530 ng·h/mL"


q: # get_value(readout='AUC(0-t) at 24 h', item= "N#Cc1cc(-c2ccc(C(=O)O)c(O)c2)c2ccsc2c1" )
a: 902 ng·h/mL

q: # get_value(readout='AUC(0-t) at 24 h', item= "N#Cc1cc(-c2ccc(C(=O)O)c(O)c2)c2oc(Cl)cc2c1" )
a: 5480 ng·h/mL

q: # get_value(readout='AUC(0-t) at 24 h', item= "N#Cc1cc(-c2ccc(C(=O)O)c(O)c2)c2occc2c1" )
a: 6860 ng·h/mL

q: # get_value(readout='AUC(0-t) at 24 h', item= "N#Cc1cc(-c2ccc(C(=O)O)c(O)c2)c2oc(F)cc2c1" )
a: 10900 ng·h/mL

Values compiled from ChEMBL document CHEMBL5584307.
